System: HCV replicon 1b WT
Experiment: Cell-based HCV replicon assay, 1b WT
Settings: Hepatitis C virus, 72 h; replicon cells, harvested day 3, replicon RNA by real time PCR (Taqman)
attributeMeasured: log10 EC50 (log10 of the value in pM)
Friendly reminder: values = log10 of EC50, unit pM.

// worked examples, log10 EC50 included
Task: Report log10 EC50 for COC(=O)N[C@H](C(=O)N1CCC[C@H]1c1ncc(-c2ccc3c(c2)Oc2ccc(-c4cnc([C@@H]5CCCN5C(=O)[C@@H](NC(=O)OC)C(C)C)[nH]4)c4occ-3c24)[nH]1)C(C)C please.
Result: 0.30

Task: # input compound: COC(=O)N[C@H](C(=O)N1CCC[C@H]1c1ncc(-c2ccc3c(c2)Oc2cc(-c4cnc([C@@H]5CCCN5C(=O)[C@@H](NC(=O)OC)C(C)C)[nH]4)cc4c2N3CCC4)[nH]1)C(C)C ; wanted: its log10 EC50
Result: 1.49

Task: I would be grateful if you could share the reported log10 EC50 for COC(=O)N[C@H](C(=O)N1CCC[C@H]1c1ncc(-c2cc3c4c(c2)Oc2ccc(-c5cnc([C@@H]6CCCN6C(=O)[C@@H](NC(=O)OC)C(C)C)[nH]5)cc2C4CO3)[nH]1)C(C)C (some centres unmarked) .
Result: 0.60

Next:
Task: I'd like to know its log10 EC50. The compound in question is COC(=O)N[C@H](C(=O)N1CCC[C@H]1c1ncc(-c2ccc3c(c2)Oc2ccc(-c4cnc([C@@H]5CCCN5C(=O)[C@@H](NC(=O)OC)C(C)C)[nH]4)c4c2N3CC4)[nH]1)C(C)C
Result: 0.00

Task: Would you mind telling me what log10 EC50 value was observed for COC(=O)N[C@H](C(=O)N1CCC[C@H]1c1ncc(-c2cc3c4c(c2)Oc2ccc(-c5cnc([C@@H]6CCCN6C(=O)[C@@H](NC(=O)OC)C(C)C)[nH]5)cc2N4CC3)[nH]1)C(C)C ?
Result: 0.70

###

Tested on: HCV replicon 3a WT
Assay: Cell-based HCV replicon assay, 3a WT
Conditions: Hepatitis C virus, 72 h; replicon cells, harvested day 3, replicon RNA by real time PCR (Taqman)
attributeMeasured: pEC50
pEC50 is a log-scale quantity: -log10 of the concentration expressed in molar.

Example molecules with recorded pEC50:
Task: # get_value(readout= pEC50, system= HCV replicon 3a WT) for COC(=O)N[C@H](C(=O)N1CCC[C@H]1c1ncc(-c2cc3c4c(c2)Oc2ccc(-c5cnc([C@@H]6CCCN6C(=O)[C@@H](NC(=O)OC)C(C)C)[nH]5)cc2N4CCC3)[nH]1)C(C)C [Compound 12]
Result: 9.43

Task: For HCV replicon 3a WT, provide pEC50 of COC(=O)N[C@H](C(=O)N1CC(F)(F)C[C@H]1c1ncc(-c2ccc3c(c2)Oc2ccc(-c4cnc([C@@H]5CC(F)(F)CN5C(=O)[C@@H](NC(=O)OC)C(C)C)[nH]4)c4c2N3CCC4)[nH]1)C(C)C [Compound 19] please.
Result: 8.00

New cases:
Task: So what pEC50 did COC(=O)N[C@H](C(=O)N1CCC[C@H]1c1ncc(-c2ccc3c(c2)Oc2ccc(-c4cnc([C@@H]5CCCN5C(=O)[C@@H](NC(=O)OC)C5CC5)[nH]4)c4ccn-3c24)[nH]1)C1CC1 [Compound 4] get with HCV replicon 3a WT?
Result: 8.72

Task: Fill in the recorded pEC50 for this molecule, with HCV replicon 3a WT as test system: COC(=O)N[C@H](C(=O)N1CCC[C@H]1c1ncc(-c2ccc3c(c2)-n2ccc4cc(-c5cnc([C@@H]6CCCN6C(=O)[C@@H](NC(=O)OC)C(C)C)[nH]5)cc(c42)O3)[nH]1)C(C)C [Compound 16]
Result: 8.02

Task: // fetch HCV replicon 3a WT pEC50 for COC(=O)N[C@H](C(=O)N1CCC[C@H]1c1ncc(-c2cc3c4c(c2)Oc2ccc(-c5cnc([C@@H]6CCCN6C(=O)[C@@H](NC(=O)OC)C(C)C)[nH]5)cc2N4CCO3)[nH]1)C(C)C [Compound 13]
Result: 8.79

Task: Request body: readout pEC50, system HCV replicon 3a WT, query COC(=O)N[C@H](C(=O)N1CC(F)(F)C[C@H]1c1ncc(-c2ccc3c(c2)Oc2ccc(-c4cnc([C@@H]5CC(F)(F)CN5C(=O)[C@@H](NC(=O)OC)C(C)C)[nH]4)c4c2N3CC4)[nH]1)C(C)C [Compound 18] . Return the value.
Result: 9.03

Task: Which measured pEC50 belongs to COC(=O)N[C@H](C(=O)N1CCC[C@H]1c1ncc(-c2ccc3c(c2)Oc2cc(-c4cnc([C@@H]5CCCN5C(=O)[C@@H](NC(=O)OC)C(C)C)[nH]4)cc4c2N3CC4)[nH]1)C(C)C [Compound 7] , tested on HCV replicon 3a WT?
Result: 8.96

Task: What reported pEC50 corresponds to COC(=O)N[C@H](C(=O)N1CCC[C@H]1c1ncc(-c2ccc3c(c2)Oc2cc(-c4cnc([C@@H]5CCCN5C(=O)[C@@H](NC(=O)OC)C(C)C)[nH]4)cc4c2N3CCC4)[nH]1)C(C)C [Compound 11] on HCV replicon 3a WT?
Result: 8.00

###

Tested on: HCV replicon 1b WT
Assay: Cell-based HCV replicon assay, 1b WT
Details: Hepatitis C virus, 72 h; replicon cells, harvested day 3, replicon RNA by real time PCR (Taqman)
Each record here notes measured EC50.
State the value, then name its unit.

Task: Any idea what its EC50 is? The compound is COC(=O)N[C@H](C(=O)N1CCC[C@H]1c1ncc(-c2ccc3c(c2)-n2ccc4cc(-c5cnc([C@@H]6CCCN6C(=O)[C@@H](NC(=O)OC)C(C)C)[nH]5)cc(c42)O3)[nH]1)C(C)C [Compound 16]
Result: 9 pM

Task: Which EC50 is listed for COC(=O)N[C@H](C(=O)N1CCC[C@H]1c1ncc(-c2ccc3c(c2)Oc2ccc(-c4cnc([C@@H]5CCCN5C(=O)[C@@H](NC(=O)OC)C(C)(C)C)[nH]4)c4ccn-3c24)[nH]1)C(C)(C)C [Compound 2] ?
Result: 4.43 pM

Now for a further compound.
Task: # lookup: EC50 of COC(=O)N[C@@H](C(=O)N1CCC[C@H]1c1ncc(-c2ccc3c(c2)Oc2ccc(-c4cnc([C@@H]5CCCN5C(=O)[C@H](NC(=O)OC)c5ccccc5)[nH]4)c4ccn-3c24)[nH]1)c1ccccc1 [Compound 3]
Result: 7 pM

###

System: HCV replicon 1b WT
Assay: Cell-based HCV replicon assay, 1b WT
Details: Hepatitis C virus, 72 h; replicon cells, harvested day 3, replicon RNA by real time PCR (Taqman)
Item-by-item account of pEC50
Note: pEC50 values are expressed as the negative base-10 logarithm of concentration in M.

Task: Item COC(=O)N[C@H](C(=O)N1CC(F)(F)C[C@H]1c1ncc(-c2ccc3c(c2)Oc2ccc(-c4cnc([C@@H]5CC(F)(F)CN5C(=O)[C@@H](NC(=O)OC)C(C)C)[nH]4)c4c2N3CC4)[nH]1)C(C)C has what recorded pEC50?
Result: 11.70

Task: Item COC(=O)N[C@H](C(=O)N1CCC[C@H]1c1ncc(-c2ccc3c(c2)Oc2ccc(-c4cnc([C@@H]5CCCN5C(=O)[C@@H](NC(=O)OC)C(C)C)[nH]4)c4ccn-3c24)[nH]1)C(C)C has what recorded pEC50?
Result: 11.05

Task: Entry under review: COC(=O)N[C@H](C(=O)N1CCC[C@H]1c1ncc(-c2ccc3c(c2)Oc2ccc(-c4cnc([C@@H]5CCCN5C(=O)[C@@H](NC(=O)OC)C5CC5)[nH]4)c4ccn-3c24)[nH]1)C1CC1 . Reported pEC50?
Result: 11.22

Task: # query: pEC50 of entry COC(=O)N[C@H](C(=O)N1CC(F)(F)C[C@H]1c1ncc(-c2ccc3c(c2)Oc2ccc(-c4cnc([C@@H]5CC(F)(F)CN5C(=O)[C@@H](NC(=O)OC)C(C)C)[nH]4)c4c2N3CCC4)[nH]1)C(C)C
Result: 11.52

Task: Entry under review: COC(=O)N[C@H](C(=O)N1CCC[C@H]1c1ncc(-c2ccc3c(c2)Oc2ccc(-c4cnc([C@@H]5CCCN5C(=O)[C@@H](NC(=O)OC)C(C)C)[nH]4)c4cnn-3c24)[nH]1)C(C)C . Reported pEC50?
Result: 11.30

Next:
Task: Reported pEC50 for COC(=O)N[C@H](C(=O)N1CC(F)(F)C[C@H]1c1ncc(-c2ccc3c(c2)Oc2ccc(-c4cnc([C@@H]5CC(F)(F)CN5C(=O)[C@@H](NC(=O)OC)C(C)C)[nH]4)c4ccn-3c24)[nH]1)C(C)C : what is it?
Result: 12.00

Task: I'd like to know its pEC50. The compound in question is COC(=O)N[C@H](C(=O)N1CCC[C@H]1c1ncc(-c2ccc3c(c2)Oc2cc(-c4cnc([C@@H]5CCCN5C(=O)[C@@H](NC(=O)OC)C(C)C)[nH]4)cc4c2N3CC4)[nH]1)C(C)C
Result: 10.36

Task: Recorded pEC50 for COC(=O)N[C@H](C(=O)N1CCC[C@H]1c1ncc(-c2cc3c4c(c2)Oc2ccc(-c5cnc([C@@H]6CCCN6C(=O)[C@@H](NC(=O)OC)C(C)C)[nH]5)cc2N4CCC3)[nH]1)C(C)C , please?
Result: 11.52

Task: Report pEC50 for COC(=O)N[C@H](C(=O)N1CCC[C@H]1c1ncc(-c2ccc3c(c2)-n2ccc4c(-c5cnc([C@@H]6CCCN6C(=O)[C@@H](NC(=O)OC)C(C)C)[nH]5)ccc(c42)O3)[nH]1)C(C)C please.
Result: 7.72
